- System: Frog (Rana pipiens) Skin
- Format: cell-based
- Condition set: cyclic analogues
- Experimental: The biological potencies of alpha-MSH, the linear and cyclic analogues were determined by their ability to stimulate melanosome dispersion in vitro in the frog and lizard bioassays. […]
Positions of bridges follow the written chain, without caps; N, C: chain ends. Non-standard residues stand in square brackets, D forms with d. Residues, ends and D or L forms follow the SMILES beside them. Nle = CCCC[C@H](N)C(=O)O
Quantity: Residual Activity Frog (prolonged action)

compound="CCCC[C@H](NC(=O)[C@H](CO)NC(C)=O)C(=O)N[C@H]1CC(=O)NCCCC[C@@H](C(N)=O)NC(=O)[C@H](Cc2c[nH]c3ccccc23)NC(=O)[C@H](CCCNC(=N)N)NC(=O)[C@@H](Cc2ccccc2)NC(=O)[C@H](Cc2c[nH]cn2)NC1=O [Analogue 24] (Ac-S[Nle]DH[dF]RWK-NH2; lactam 3-8)" recorded_result=p(+)
compound="CCCC[C@H](NC(C)=O)C(=O)N[C@H]1CC(=O)NCC[C@@H](C(N)=O)NC(=O)[C@H](Cc2c[nH]c3ccccc23)NC(=O)[C@H](CCCNC(=N)N)NC(=O)[C@@H](Cc2ccccc2)NC(=O)[C@H](Cc2c[nH]cn2)NC1=O [Analogue 19]" recorded_result=p(-)
compound="CCCC[C@H](NC(C)=O)C(=O)N[C@H]1CC(=O)NCCCC[C@@H](C(=O)NCC(N)=O)NC(=O)[C@H](Cc2c[nH]c3ccccc23)NC(=O)[C@H](CCCNC(=N)N)NC(=O)[C@@H](Cc2ccccc2)NC(=O)[C@H](Cc2c[nH]cn2)NC1=O [Analogue 26] (Ac-[Nle]DH[dF]RWKG-NH2; lactam 2-7)" recorded_result=p(+)
compound="CCCC[C@H](NC(C)=O)C(=O)N[C@H]1CC(=O)NCCC[C@@H](C(N)=O)NC(=O)[C@H](Cc2c[nH]c3ccccc23)NC(=O)[C@H](CCCNC(=N)N)NC(=O)[C@@H](Cc2ccccc2)NC(=O)[C@H](Cc2c[nH]cn2)NC1=O [Analogue 18]" recorded_result=p(-)
